Values were extracted from patent US20020098189A1.

Target: F protein of respiratory syncytial virus (RSV-Long strain), on infectious virus (respiratory syncytial virus (RSV-Long …, UniProt P12568 26-574))
Test: cell-based or functional assay
observable: Mean IC50 (Control) µg/ml, RSV microneutralization (µg/mL)

[[record]]
binder = "Clone 10 (Fab) (Fab, V domains shown) VH: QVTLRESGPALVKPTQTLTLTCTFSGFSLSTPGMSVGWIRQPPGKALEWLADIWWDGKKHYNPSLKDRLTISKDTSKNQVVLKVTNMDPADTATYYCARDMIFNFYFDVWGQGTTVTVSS VL: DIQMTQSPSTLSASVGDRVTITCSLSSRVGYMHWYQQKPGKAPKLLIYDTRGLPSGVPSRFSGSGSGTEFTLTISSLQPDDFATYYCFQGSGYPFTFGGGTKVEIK"
units_symbol = "µg/mL"
result_value = 0.0351

[[record]]
binder = "MEDI-493 (clone 16), IgG1 (COR)/kappa (K102) humanized MAb (antibody, V domains shown) VH: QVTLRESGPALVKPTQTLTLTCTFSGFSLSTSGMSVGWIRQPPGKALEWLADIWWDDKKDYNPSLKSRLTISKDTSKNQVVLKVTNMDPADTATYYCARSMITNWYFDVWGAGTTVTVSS VL: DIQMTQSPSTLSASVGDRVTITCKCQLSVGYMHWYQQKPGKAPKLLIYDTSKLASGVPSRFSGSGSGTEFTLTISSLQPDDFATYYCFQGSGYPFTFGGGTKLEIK"
units_symbol = "µg/mL"
result_value = 0.535

